# experimental.details: Pharmacokinetic parameters for Isosorbide mononitrate after multiple oral dose administrations of 60 and 120 mg Isosorbide mononitrate tablets to subjects
# Format: ADME, organism-based
# Parameters: dose 120 mg, dose 60 mg, route oral
# test.parameters: human, in vivo; dose 60 mg, dosed compound id 10, dosed compound name ISOSORBIDE MONONITRATE, regimen Multiple dose, route oral, tissue Plasma
measured.endpoint: CL/F

| compound | measured.endpoint | observed.measurement |
| --- | --- | --- |
| O=[N+]([O-])O[C@@H]1CO[C@H]2[C@@H]1OC[C@@H]2O [ISOSORBIDE MONONITRATE] | CL/F | 132 to 151 mL/min |
